Listed here: items and their measured EC50.
biological target: human somatostatin receptor subtype 2 (Homo sapiens, UniProt P30874); construct: expressed in transfected cells; assay: Functional assay for SSTR2 agonists (HTRF cAMP); assay type: cell-based; details: CHO-K1 cells stably expressing human SST2; NKH477-stimulated cAMP; 20 min at 37 C; read-out: hSST2 cAMP Avg EC50
Write down the numeric answer in nM and omit the unit.

| smiles.entry | study.system | unit.abbrev | EC50 |
| --- | --- | --- | --- |
| CC[C@H](C)[C@@H]([C@@H](CC(=O)N1CCC[C@H]1[C@H](OC)[C@@H](C)C(=O)N[C@H](C)[C@@H](O)c1ccccc1)OC)N(C)C(=O)[C@@H](NC(=O)[C@H](C(C)C)N(C)C(=O)OCc1ccc(NC(=O)[C@H](C)NC(=O)[C@@H](NC(=O)CCOCCC(=O)NCCNc2ncc(-c3cc(C)cc(F)c3)c(N3CCC(N)CC3)c2-c2nc3ccc(F)cc3[nH]2)C(C)C)c(O[C@@H]2O[C@H](C(=O)O)[C@@H](O)[C@H](O)[C@H]2O)c1)C(C)C | human somatostatin receptor subtype 2 (Homo sapiens, UniProt P30874) | nM | 0.072 |

Ask | Endpoint output: EC50 of CC[C@H](C)[C@@H]([C@@H](CC(=O)N1CCC[C@H]1[C@H](OC)[C@@H](C)C(=O)N[C@H](C)[C@@H](O)c1ccccc1)OC)N(C)C(=O)[C@@H](NC(=O)[C@H](C(C)C)N(C)C(=O)OCc1ccc(NC(=O)[C@H](CCCNC(N)=O)NC(=O)[C@@H](NC(=O)c2cc(NCCCCCC(=O)N(C)CC(=O)NCCNc3ncc(-c4cc(C)cc(F)c4)c(N4CCC(N)CC4)c3-c3nc4ccc(F)cc4[nH]3)cc(C(=O)NCC(=O)O)c2)C(C)C)cc1)C(C)C . Value?
Reply | 0.17

---

target: human somatostatin receptor subtype 2 (Homo sapiens); construct: expressed in transfected cells; assay: Functional assay for SSTR2 agonists (HTRF cAMP); assay type: cell-based; conditions: CHO-K1 cells stably expressing human SST2; NKH477-stimulated cAMP; 20 min at 37 C; read-out: hSST2 cAMP Avg EC50
observation.type: EC50 (nM)
Write down the numeric answer in nM and omit the unit.

Ask | Endpoint output: EC50 of CC[C@H](C)[C@@H]([C@@H](CC(=O)N1CCC[C@H]1[C@H](OC)[C@@H](C)C(=O)N[C@H](C)[C@@H](O)c1ccccc1)OC)N(C)C(=O)[C@@H](NC(=O)[C@H](C(C)C)N(C)C(=O)OCc1ccc(NC(=O)[C@H](CCCNC(N)=O)NC(=O)[C@@H](NC(=O)CCOCCC(=O)NCCNc2ncc(-c3cc(C)cc(F)c3)c(N3CCC(N)CC3)c2-c2nc3ccc(Cl)cc3[nH]2)C(C)C)c(O[C@@H]2O[C@H](C(=O)NCCOCCC(=O)O)[C@@H](O)[C@H](O)[C@H]2O)c1)C(C)C [Compound 230] . Value?
Reply | 0.095

---

biological target: SST2 (Homo sapiens); construct: host or cells: PathHunter CHO-K1 SST2 cells; test: PathHunter CHO-K1 SST2 Internalization Assay; type: cell-based; conditions: PathHunter CHO-K1 SST2 cells; 90 min at 37 C; luminescence; read-out: Internalization EC50
Sequence (P30874 whole entry): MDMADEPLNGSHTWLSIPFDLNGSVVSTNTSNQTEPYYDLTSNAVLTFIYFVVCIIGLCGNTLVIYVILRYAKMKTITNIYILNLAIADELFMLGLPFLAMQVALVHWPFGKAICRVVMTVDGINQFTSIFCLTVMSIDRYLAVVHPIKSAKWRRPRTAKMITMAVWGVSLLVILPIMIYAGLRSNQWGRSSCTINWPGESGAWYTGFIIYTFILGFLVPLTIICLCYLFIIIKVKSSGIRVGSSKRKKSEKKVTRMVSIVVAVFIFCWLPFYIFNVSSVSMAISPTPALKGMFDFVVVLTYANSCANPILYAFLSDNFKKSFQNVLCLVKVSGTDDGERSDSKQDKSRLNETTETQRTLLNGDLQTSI
Listed here: items and their measured pEC50.
Reminder that pEC50 means the negative base-10 logarithm of the concentration expressed in mol/L.

| compound | pEC50 |
| --- | --- |
| CC[C@H](C)[C@@H]([C@@H](CC(=O)N1CCCC1[C@H](OC)[C@@H](C)C(=O)N[C@H](C)[C@@H](O)c1ccccc1)OC)N(C)C(=O)[C@@H](NC(=O)[C@H](C(C)C)N(C)C(=O)OCc1ccc(O[C@@H]2O[C@H](C(=O)O)[C@@H](O)[C@H](O)[C@H]2O)c(NC(=O)[C@H](C)NC(=O)[C@@H](NC(=O)CCOCCC(=O)NCCNc2ncc(-c3cc(C)cc(F)c3)c(N3CCC(N)CC3)c2-c2nc3ccc(Cl)cc3[nH]2)C(C)C)c1)C(C)C (stereo partly drawn) [Compound 249] | 8.35 |
| CC[C@H](C)[C@@H]([C@@H](CC(=O)N1CCC[C@H]1[C@H](OC)[C@@H](C)C(=O)N[C@H](C)[C@@H](O)c1ccccc1)OC)N(C)C(=O)[C@@H](NC(=O)[C@H](C(C)C)N(C)C(=O)OCc1ccc(NC(=O)C(CCCNC(N)=O)NC(=O)C2(NC(=O)CCOCCC(=O)NCCNc3ncc(-c4cc(C)cc(F)c4)c(N4CCC(N)CC4)c3-c3nc4ccc(Cl)cc4[nH]3)CCC2)c(O[C@@H]2O[C@H](C(=O)O)[C@@H](O)[C@H](O)[C@H]2O)c1)C(C)C (stereo partly drawn) [Compound 242] | 8.60 |
| CC[C@H](C)[C@@H]([C@@H](CC(=O)N1CCC[C@H]1[C@H](OC)[C@@H](C)C(=O)N[C@H](C)[C@@H](O)c1ccccc1)OC)N(C)C(=O)[C@@H](NC(=O)[C@H](C(C)C)N(C)C(=O)OCc1ccc(NC(=O)[C@H](CCCNC(N)=O)NC(=O)[C@@H](NC(=O)CCOCCC(=O)NCCNc2ncc(-c3cc(C)cc(F)c3)c(N3CCC(N)CC3)c2-c2nc3ccc(Cl)cc3[nH]2)C(C)C)c(O[C@@H]2O[C@H](C(=O)NCCS(=O)(=O)O)[C@@H](O)[C@H](O)[C@H]2O)c1)C(C)C [Compound 208] | 8.51 |
| CC[C@H](C)[C@@H]([C@@H](CC(=O)N1CCC[C@H]1[C@H](OC)[C@@H](C)C(=O)N[C@H](C)[C@@H](O)c1ccccc1)OC)N(C)C(=O)[C@@H](NC(=O)[C@H](C(C)C)N(C)C(=O)OCc1ccc(NC(=O)[C@H](CCCNC(N)=O)NC(=O)[C@@H](NC(=O)CCOCCC(=O)NCCNc2ncc(-c3cc(C)cc(F)c3)c(N3CCC(N)CC3)c2-c2nc3ccc(Cl)cc3[nH]2)C(C)C)c(OCC(=O)O)c1)C(C)C [Compound 18] | 8.19 |
| CC[C@H](C)[C@@H]([C@@H](CC(=O)N1CCC[C@H]1[C@H](OC)[C@@H](C)C(=O)N[C@H](C)[C@@H](O)c1ccccc1)OC)N(C)C(=O)[C@@H](NC(=O)[C@H](C(C)C)N(C)C(=O)OCc1ccc(NC(=O)[C@H](C)NC(=O)[C@@H](NC(=O)[C@@H](CS(=O)(=O)O)NC(=O)CCOCCC(=O)NCCNc2ncc(-c3cc(C)cc(F)c3)c(N3CCC(N)CC3)c2-c2nc3ccc(Cl)cc3[nH]2)C(C)C)cc1C(=O)N1CC(C(=O)O)C1)C(C)C [Compound 78] | 8.06 |

Ask | Endpoint output: pEC50 of CC[C@H](C)[C@@H]([C@@H](CC(=O)N1CCC[C@H]1[C@H](OC)[C@@H](C)C(=O)N[C@H](C)[C@@H](O)c1ccccc1)OC)N(C)C(=O)[C@@H](NC(=O)[C@H](C(C)C)N(C)C(=O)OCc1ccc(NC(=O)[C@H](C)NC(=O)[C@@H](NC(=O)CCOCCC(=O)NCCNc2ncc(-c3cc(C)cc(F)c3)c(N3CC[C@H]4NCCO[C@@H]4C3)c2-c2nc3c(F)cc(F)cc3[nH]2)C(C)C)c(O[C@@H]2O[C@H](C(=O)O)[C@@H](O)[C@H](O)[C@H]2O)c1)C(C)C [Compound 114] . Value?
Reply | 6.07

Ask | Endpoint output: pEC50 of CC[C@H](C)[C@@H]([C@@H](CC(=O)N1CCC[C@H]1[C@H](OC)[C@@H](C)C(=O)N[C@H](C)[C@@H](O)c1ccccc1)OC)N(C)C(=O)[C@@H](NC(=O)[C@H](C(C)C)N(C)C(=O)OCc1ccc(NC(=O)[C@H](C)NC(=O)[C@@H](NC(=O)CCOCCC(=O)NCCNc2ncc(-c3cc(F)cc(OC)c3)c(N3CCC(N)CC3)c2-c2nc3ccc(Cl)cc3[nH]2)C(C)C)c(O[C@@H]2O[C@H](C(=O)O)[C@@H](O)[C@H](O)[C@H]2O)c1)C(C)C [Compound 139] . Value?
Reply | 8.31

Ask | Endpoint output: pEC50 of CC[C@H](C)[C@@H]([C@@H](CC(=O)N1CCC[C@H]1[C@H](OC)[C@@H](C)C(=O)N[C@H](C)[C@@H](O)c1ccccc1)OC)N(C)C(=O)[C@@H](NC(=O)[C@H](C(C)C)N(C)C(=O)OCc1ccc(NC(=O)[C@H](C)NC(=O)[C@@H](NC(=O)CCOCCC(=O)NCCNc2ncc(-c3cc(C)cc(F)c3)c(N3CCC(N)CC3)c2-c2nc3cc(F)cc(OC)c3[nH]2)C(C)C)c(O[C@@H]2O[C@H](C(=O)O)[C@@H](O)[C@H](O)[C@H]2O)c1)C(C)C [Compound 140] . Value?
Reply | 8.54

Ask | Endpoint output: pEC50 of CC[C@H](C)[C@@H]([C@@H](CC(=O)N1CCC[C@H]1[C@H](OC)[C@@H](C)C(=O)N[C@H](C)[C@@H](O)c1ccccc1)OC)N(C)C(=O)[C@@H](NC(=O)[C@H](C(C)C)N(C)C(=O)OCc1ccc(NC(=O)[C@H](CCCNC(N)=O)NC(=O)[C@@H](NC(=O)c2cc(C(=O)NCC(=O)O)cc(N(C)CCOCCOCCOCCOCCC(=O)NCCNc3ncc(-c4cc(C)cc(F)c4)c(N4CCC(N)CC4)c3-c3nc4ccc(Cl)cc4[nH]3)c2)C(C)C)cc1)C(C)C [Compound 159] . Value?
Reply | 7.64
